Test system: Tetranychus cinnabarinus
protocol.description: Acaricidal activity against Tetranychus cinnabarinus (carmine spider mite) infected kidney bean leaf assessed as mortality at 10 mg/l measured after 48 hr in greenhouse conditions relative to control
Assay type: functional
measure.name: mortality at 10 µg/mL

Examples with their reported mortality at 10 µg/mL follow.
| chemical.structure | target.system | mortality at 10 µg/mL |
| --- | --- | --- |
| CCNc1nc(OCc2ccccc2/C(=C\OC)C(=O)OC)cc(C(F)(F)F)n1 | Tetranychus cinnabarinus | 0% |
| CCN(CC)c1nc(OCc2ccccc2/C(=C\OC)C(=O)OC)cc(C(F)(F)F)n1 | Tetranychus cinnabarinus | 21% |
| CO/C=C(/C(=O)OC)c1ccccc1COc1cc(C(F)(F)F)nc(N(C)C)n1 | Tetranychus cinnabarinus | 0% |
| CO/N=C(/C(=O)OC)c1ccccc1COc1cc(C(F)(F)F)nc(Nc2ccccc2)n1 | Tetranychus cinnabarinus | 0% |
| CO/C=C(/C(=O)OC)c1ccccc1COc1nc(Nc2ccccc2)nc(C)c1C | Tetranychus cinnabarinus | 0% |
| CO/C=C(/C(=O)OC)c1ccccc1COc1cc(C(F)(F)F)nc(NC(C)C)n1 | Tetranychus cinnabarinus | 64% |
| CNC(=O)N(OC)c1ccccc1COc1cc(C(F)(F)F)nc(Nc2ccccc2)n1 | Tetranychus cinnabarinus | 0% |
| CO/C=C(/C(=O)OC)c1ccccc1COc1cc(C(F)(F)F)nc(NC2CC2)n1 | Tetranychus cinnabarinus | 0% |

Query: Provide one value: measured mortality at 10 µg/mL of CO/C=C(/C(=O)OC)c1ccccc1COc1cc(C(F)(F)F)nc(NC2CCCCC2)n1
Reply: 70%

Query: Provide one value: measured mortality at 10 µg/mL of COC(=O)N(OC)c1ccccc1COc1cc(C(F)(F)F)nc(Nc2ccccc2)n1
Reply: 0%

Query: Provide one value: measured mortality at 10 µg/mL of CO/C=C(/C(=O)OC)c1ccccc1COc1cc(C(F)(F)F)nc(N2CCCCC2)n1
Reply: 0%

###

# Lookup of reported mortality at 10 µg/mL keyed by entry
System: Tetranychus cinnabarinus
protocol.description: Acaricidal activity against Tetranychus cinnabarinus (carmine spider mite) infected kidney bean leaf assessed as mortality at 10 mg/l measured after 48 hr in greenhouse conditions relative to control
Format: functional
Give the value, in units of %, as a plain number.

Query: Please tell me the measured mortality at 10 µg/mL for CO/C=C(/C(=O)OC)c1ccccc1COc1cc(C)nc(Nc2ccccc2)n1 ; system: Tetranychus cinnabarinus.
Reply: 0

Query: Please tell me the measured mortality at 10 µg/mL for CNC(=O)/C(=N/OC)c1ccccc1COc1cc(C(F)(F)F)nc(Nc2ccccc2)n1 ; system: Tetranychus cinnabarinus.
Reply: 0

Query: Please tell me the measured mortality at 10 µg/mL for CO/C=C(/C(=O)OC)c1ccccc1COc1cc(C(F)(F)F)nc(NCc2ccccc2Cl)n1 ; system: Tetranychus cinnabarinus.
Reply: 32

Query: Please tell me the measured mortality at 10 µg/mL for CO/C=C(/C(=O)OC)c1ccccc1COc1cc(C(F)(F)F)nc(NCc2ccccc2)n1 ; system: Tetranychus cinnabarinus.
Reply: 28

Query: Please tell me the measured mortality at 10 µg/mL for CNc1nc(OCc2ccccc2/C(=C\OC)C(=O)OC)cc(C(F)(F)F)n1 ; system: Tetranychus cinnabarinus.
Reply: 0

###

System: Tetranychus cinnabarinus
protocol.description: Acaricidal activity against Tetranychus cinnabarinus (carmine spider mite) infected kidney bean leaf assessed as mortality at 10 mg/l measured after 48 hr in greenhouse conditions relative to control
Assay type: functional
# Lookup of reported mortality at 10 µg/mL keyed by entry
Give the value, in units of %, as a plain number.

Examples with their reported mortality at 10 µg/mL follow.
| chemical.structure | mortality at 10 µg/mL (%) |
| --- | --- |
| CO/C=C(/C(=O)OC)c1ccccc1COc1cc(C(F)(F)F)nc(OC(C)C)n1 | 95 |
| CO/C=C(/C(=O)OC)c1ccccc1COc1cc(C(F)(F)F)nc(Nc2ccccc2)n1 | 85 |

Query: Please tell me the measured mortality at 10 µg/mL for CO/C=C(/C(=O)OC)c1ccccc1COc1cc(C2CC2)nc(Nc2ccccc2)n1 ; system: Tetranychus cinnabarinus.
Reply: 0

Query: Please tell me the measured mortality at 10 µg/mL for CO/C=C(/C(=O)OC)c1ccccc1COc1cc(C(F)(F)F)nc(N2CCOCC2)n1 ; system: Tetranychus cinnabarinus.
Reply: 0
